# assay info: Cytotoxicity against mouse RAW264.7 cells assessed as cell viability at 20 uM incubated for 24 hrs by CCK8 assay relative to control
# Format: toxicity, cell-based
# condition: read-out: Activity
Measured viability at 24 h, 20 µM values are reported for all entries that follow.
property name: viability at 24 h, 20 µM (%)

INSERT INTO assay_data (molecule, property_name, units_symbol, observed) VALUES
  ('C=C1C(=O)O[C@]2(C)CC[C@@H]1C[C@@H]1O[C@@]1(C)CC[C@@H]1O[C@]1(C)CC[C@H]2OC(C)=O', 'viability at 24 h, 20 µM', '%', 92.7),
  ('C=C1C(=O)O[C@]2(C)CC[C@@H]1C[C@@H]1O[C@@]1(C)CC[C@H](OC(C)=O)[C@@]1(C)CC[C@@H]2O1', 'viability at 24 h, 20 µM', '%', 103),
  ('C=C1C(=O)O[C@]2(C)CC[C@@H]1C[C@H](O)[C@@]1(C)CC[C@H](O1)[C@](C)(O)CCC2=O', 'viability at 24 h, 20 µM', '%', 102),
  ('C=C1C(=O)O[C@]2(C)CC[C@@H]1C[C@@H]1O[C@@]1(C)CC/C=C(\C)CC[C@H]2OC(C)=O', 'viability at 24 h, 20 µM', '%', 89),
  ('C=C1C(=O)O[C@]2(C)CC[C@@H]1C[C@H]1O[C@@]1(C)C/C=C/[C@](C)(OO)CC[C@H]2O', 'viability at 24 h, 20 µM', '%', 108),
  ('C=C(C(=O)OC)[C@@H]1CC[C@@](C)(O)[C@@H]2CC[C@@](C)(O2)[C@@H](OC(C)=O)CC[C@]2(C)O[C@H]2C1 [DENDRONPHOLIDE G]', 'viability at 24 h, 20 µM', '%', 83),
  ('C=C(C(=O)OC)[C@@H]1CC[C@@](C)(O)[C@@H](OC(C)=O)CC/C(C)=C/C/C=C(\C)[C@H](O)C1', 'viability at 24 h, 20 µM', '%', 89.2);

---

# assay info: Cytotoxicity against mouse RAW264.7 cells assessed as cell viability at 20 uM incubated for 24 hrs by CCK8 assay relative to control
# Format: toxicity, cell-based
# condition: read-out: Activity
property name: viability at 24 h, 20 µM (%)

INSERT INTO assay_data (molecule, property_name, observed) VALUES
  ('C=C1C(=O)O[C@]2(C)CC[C@@H]1C[C@@H]1O[C@@]1(C)CC[C@H](O)[C@](C)(O)CCC2=O', 'viability at 24 h, 20 µM', 89),
  ('C=C(C(=O)OC)[C@@H]1CC[C@@](C)(O)[C@@H](OC(C)=O)CC/C(C)=C/CC[C@]2(C)O[C@H]2C1', 'viability at 24 h, 20 µM', 104),
  ('C=C1C(=O)O[C@]2(C)CC[C@@H]1C[C@@H]1O[C@@]1(C)CC/C=C(\C)CCC2=O', 'viability at 24 h, 20 µM', 82.7),
  ('C=C1C(=O)O[C@]2(C)CC[C@@H]1C[C@H](O)[C@@]1(C)CC[C@H](O1)[C@](C)(O)CC[C@H]2OC(C)=O [QUERCIFORMOLIDE B]', 'viability at 24 h, 20 µM', 103);
